Tested on: HOP-92
assay_explanation: NCI tumour cell line growth inhibition, 48 h
Calls of active or inactive are those of the source. Rule as the data show it: active = GI50 up to about 1.1 µM and inactive = higher.
Listed molecules paired with reported GI50

molecule | target_system | GI50
CCOc1ccc(NC(=O)C(=O)CC(=O)C2=C(C)Nc3ccccc3S2)cc1 | HOP-92 | > 50 µM (inactive)
COc1cc(CNC2c3cc4c(cc3C(c3cc(OC)c(OC)c(OC)c3)[C@H]3C(=O)OCC23)OCO4)cc(OC)c1OC (stereo partly drawn) | HOP-92 | 0.528 µM (active)
CC1=C(C(=O)N(C)c2ccc(Cl)c(C(=O)OC(C)C)c2)SCCO1 | HOP-92 | > 100 µM (inactive)
C/C(C[n+]1ccccc1)=N\N=C(N)N | HOP-92 | > 100 µM (inactive)

# input Would you mind telling me what GI50 value was observed for Cc1cc(C)nc(NC(=O)c2ccc(Br)s2)c1 ?
# output > 100 µM (inactive)

# input Also, COc1cc(C2c3cc4c(cc3OC(NNS(=O)(=O)c3ccc(C)cc3)C2C)OCO4)cc(OC)c1OC (stereo not drawn) please.
# output 2 µM (inactive)

# input And for Clc1ccc(/C=C/c2nc(-c3ccccc3)cn3c2nc2ccccc23)cc1Cl ?
# output 70 µM (inactive)

# input Now the molecule Nc1nc(NCc2ccccc2)cc(NCc2ccccc2)n1
# output 5.38 µM (inactive)

# input Another molecule: O=c1cc(-c2ccccc2)[nH]c2c(F)ccc(F)c12
# output > 100 µM (inactive)

# input # iterate: COc1oc(C2C/C(=C/C(C)=C/C(C)=C/C(C)=C/c3ccc([N+](=O)[O-])cc3)CO2)c(C)c(=O)c1C (stereo not drawn)
# output 6.95 µM (inactive)
